B1: HEEH_KT_rd6_3632 (parent)
chain: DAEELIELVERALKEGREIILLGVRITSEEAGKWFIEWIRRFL

# Variants of: B1
# ASSAY DETAILS: folding stability dG (cDNA display proteolysis); higher = more stable
# ASSAY SETUP: PBS, room temperature
Listed here are variants together with their documented folding stability dG.
Field: numeric (kcal/mol). Do not append units.

// lookup folding stability dG for I20H 3.17

// lookup folding stability dG for G16Q 3.42

// lookup folding stability dG for F35H 2.85

// lookup folding stability dG for E30Y 3.75

// lookup folding stability dG for F42S 3.15
